System: PC-9 (EGFR exon 19 deletion)
method.notes: Cell antiproliferative assay (CTG, 72 h), PC-9
Type: cell-based, human
assay.setup: Homo sapiens, PC-9, 72 h, Table 2, PC-9 cells
readout.name: IC50

// below: answered molecules
{"molecule": "COc1cc(N2CCN(C(=O)CN3CCC(c4cccc(NC5CCC(=O)NC5=O)c4)CC3)CC2)ccc1Nc1ncc(Cl)c(Nc2ccccc2C(C)=O)n1 (centres unmarked)", "IC50": "100 to 1000 nM"}
{"molecule": "COc1cc(N2CCN(c3ncc(Cl)c(Nc4ccccc4C(C)=O)n3)CC2)ncc1NC(=O)CN1CCC(c2ccc(NC3CCC(=O)NC3=O)cc2)CC1 (centres unmarked)", "IC50": "≥ 1000 nM"}
{"molecule": "COc1cc(N2CCN(C(=O)CN3CCC(c4ccc(NC5CCC(=O)NC5=O)cc4)CC3)CC2)ccc1Nc1ncc(C(F)(F)F)c(Nc2ccc(F)cc2)n1 (centres unmarked)", "IC50": "≥ 1000 nM"}

Given the molecule C=CC(=O)Nc1cc(Nc2ncc(Cl)c(Nc3ccccc3C(C)=O)n2)c(OC)cc1N1CCN(C(=O)CN2CCC(c3ccc(NC4CCC(=O)NC4=O)cc3)CC2)CC1 (centres unmarked) , what is its reported IC50? 100 to 1000 nM

// lookup IC50 for COc1cc(N2CCN(C(=O)CN3CCN(c4ccc(NC5CCC(=O)NC5=O)cc4)CC3)CC2)ccc1Nc1ncc(Br)c(Nc2ccccc2C(C)=O)n1 (centres unmarked) 100 to 1000 nM

Query: IC50; subject: COc1cc(N2CCN(C(=O)CN3CCC(c4ccc(NC5CCC(=O)NC5=O)cc4)CC3)CC2)ccc1Nc1ncc(Cl)c(Nc2ccccc2N(C)S(C)(=O)=O)n1 (centres unmarked) 10 to 100 nM

Given COc1cc(N2CCC(N3CCN(C(=O)CCCCN4CCC(c5ccc(NC6CCC(=O)NC6=O)cc5)CC4)CC3)CC2)ccc1Nc1ncc(Cl)c(Nc2ccccc2N(C)S(C)(=O)=O)n1 (centres unmarked) , state its recorded IC50. 100 to 1000 nM

Looking for the measured IC50 of COc1cc(N2CC[C@H](N(C)C(=O)CN3CCC(c4ccc(NC5CCC(=O)NC5=O)cc4)CC3)C2)ccc1Nc1ncc(Cl)c(Nc2ccccc2C(C)=O)n1 (some centres unmarked) , can you help? ≥ 1000 nM

Recorded IC50 of COc1cc(N2CCN(C(=O)CN3CCC(c4ccc(NC5CCC(=O)NC5=O)cc4)CC3)CC2)ccc1Nc1ncc(Cl)c(Nc2ccc(F)cc2C(C)(C)O)n1 (centres unmarked) , please. 100 to 1000 nM

Looking for the measured IC50 of COc1cc(N2CCN(C(=O)CN3CCC(c4ccc(NC5CCC(=O)NC5=O)cc4)CC3)CC2)ccc1Nc1ncc(Cl)c(Nc2ccccc2P(C)(C)=O)n1 (centres unmarked) , can you help? 100 to 1000 nM

Find the recorded IC50 belonging to CNC(=O)c1ccccc1Nc1nc(Nc2ccc(N3CCN(C(=O)CN4CCC(c5ccc(NC6CCC(=O)NC6=O)cc5F)CC4)CC3)cc2OC)ncc1Br (centres unmarked) and report it. 10 to 100 nM

---

# key: entry, value: IC50
Test system: H1975 (EGFR L858R/T790M double mutation)
method.notes: Cell antiproliferative assay (CTG, 72 h), H1975
Assay type: cell-based, human
assay.setup: Homo sapiens, NCI-H1975, 72 h, Table 2, H1975 cells

Value lookup for IC50; key = COc1cc(N2CCN(C(=O)CN3CCN(c4ccc(NC5CCC(=O)NC5=O)nc4)CC3)CC2)ccc1Nc1ncc(Cl)c(Nc2ccccc2C(C)=O)n1 (centres unmarked) [Compound T-101] 100 to 1000 nM

Item under review: COc1cc(N2CCN(C(=O)CN3CCN(c4ccc(NC5CCC(=O)NC5=O)cc4)CC3)CC2)ccc1Nc1ncc(Cl)c(Nc2ccccc2C(C)=O)n1 (centres unmarked) [Compound T-82] . Reported IC50? 100 to 1000 nM

Consider the compound COc1cc(N2CCC(N3CCN(C(=O)CCCCN4CCN(c5ccc6c(c5)C(=O)N(C5CCC(=O)NC5=O)C6=O)CC4)CC3)CC2)ccc1Nc1ncc(Cl)c(Nc2ccccc2C(C)=O)n1 (centres unmarked) [Compound T-221] and give its measured IC50. 100 to 1000 nM

Quick one: IC50 for COc1cc(N2CCC(CN3CCN(c4ccc5c(c4)C(=O)N(C4CCC(=O)NC4=O)C5=O)CC3)CC2)ccc1Nc1ncc(Cl)c(Nc2ccccc2C(C)=O)n1 (centres unmarked) [Compound T-225] ? 100 to 1000 nM

Endpoint output: IC50 of COc1cc(N2CCN(C(=O)CN3CCC(c4ccc(NC5CCC(=O)NC5=O)cc4)CC3)CC2)c(C)cc1Nc1ncc(Cl)c(Nc2ccccc2C(C)=O)n1 (centres unmarked) [Compound T-57] . Value? 10 to 100 nM
